target: TYK2 JH2 (Homo sapiens, UniProt P29597)
Construct: purchased DiscoverX (KINOMEscan KdELECT service); host or cells: E. coli BL21-derived (T7 phage display) or HEK-293
Sequence (P29597 589-875 limits assumed): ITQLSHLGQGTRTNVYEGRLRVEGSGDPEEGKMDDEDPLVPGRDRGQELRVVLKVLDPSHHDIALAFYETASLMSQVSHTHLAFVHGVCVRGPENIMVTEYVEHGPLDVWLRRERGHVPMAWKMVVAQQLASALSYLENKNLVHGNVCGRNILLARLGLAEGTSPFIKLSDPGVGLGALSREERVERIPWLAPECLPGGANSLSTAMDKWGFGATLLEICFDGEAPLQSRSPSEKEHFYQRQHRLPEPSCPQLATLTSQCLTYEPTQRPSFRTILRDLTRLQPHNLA
testDescription: TYK2 JH2 binding assay (KINOMEscan KdELECT competitive binding)
assaySetup: TYK2 JH2 domain, KINOMEscan KdELECT (Assay A); read-out: Biochemical TYK2_DiscoverX_JH2_BND_Kd
propertyName: Kd

Some solved cases for reference:
compound="CNc1ncc(C#Cc2ccc3nnn(CCOC)c3c2)c2cc(NC(=O)C3CC3)ncc12 [Example 682]" target="TYK2 JH2 (Homo sapiens, UniProt P29597)" propertyname=Kd experimentalresult="≤ 100 nM"
compound="CNc1ncc(-c2nc3cc(N4CC(C)(F)C4)ccc3o2)c2cc(NC(=O)C3CC3)ncc12 [Example 932]" target="TYK2 JH2 (Homo sapiens, UniProt P29597)" propertyname=Kd experimentalresult="≤ 100 nM"
compound="CNc1ncc(-c2ccc(OCCOC)cc2)c2cc(NC(=O)C3CC3)ncc12 [Example 859]" target="TYK2 JH2 (Homo sapiens, UniProt P29597)" propertyname=Kd experimentalresult="≤ 100 nM"
compound="CNc1ncc(-c2nc3cc(N4CCOCC4)ccc3o2)c2cc(NC(=O)[C@@H]3C[C@@H]3C(F)(F)F)ncc12 (single isomer, unassigned) [Example 1067]" target="TYK2 JH2 (Homo sapiens, UniProt P29597)" propertyname=Kd experimentalresult="≤ 100 nM"
compound="CNc1ncc(C#Cc2ccc(OC3CN(C(C)=O)C3)cc2)c2cc(NC(=O)[C@H]3C[C@H]3C(F)F)ncc12 (single isomer, unassigned) [Example 776]" target="TYK2 JH2 (Homo sapiens, UniProt P29597)" propertyname=Kd experimentalresult="≤ 100 nM"
compound="CNc1ncc(C#Cc2cc3ccoc3cn2)c2cc(NC(=O)C3CC3)ncc12 [Example 667]" target="TYK2 JH2 (Homo sapiens, UniProt P29597)" propertyname=Kd experimentalresult="≤ 100 nM"

For [2H]C([2H])([2H])Nc1ncc(C#Cc2ccc(OC)cn2)c2cc(NC(=O)[C@H]3C[C@H]3C)ncc12 [Example 779] , what is its reported Kd?
≤ 100 nM

---

Tested on: JAK1/TYK2 pSTAT5 (Tyr694/699) in THP-1 cell line
testDescription: IFNa-stimulated JAK1/TYK2 pSTAT5 (Tyr694/699) inhibition cellular assay, AlphaLISA
Type: cell-based
assaySetup: THP-1 cells, IFNa-stimulated pSTAT5 (Tyr694/699), AlphaLISA (Assay B); read-out: Cellular_THP1_IFNa-pSTATS_TYK2
Assignment: determine reported IC50 for the given compounds.

As a guide, the following entries are already answered.
compound="CNc1ncc(-c2nc3ccc(N4CCOC(C(C)(C)F)C4)cn3n2)c2cc(NC(=O)C3CC3)ncc12 (single isomer, unassigned)" target="JAK1/TYK2 pSTAT5 (Tyr694/699) in THP-1 cell line" experimentalresult="≤ 500 nM"
compound="CNc1ncc(-c2nc3cc(N4CCOCC4)ccc3o2)c2cc(NC(=O)[C@@H]3C[C@@H]3C(F)(F)F)ncc12 (single isomer, unassigned)" target="JAK1/TYK2 pSTAT5 (Tyr694/699) in THP-1 cell line" experimentalresult="≤ 500 nM"

Report IC50 for CNc1ncc(-c2nc3ccc(N4CCOC(COC)C4)cn3n2)c2cc(NC(=O)C3CC3)ncc12 (single isomer, unassigned) tested on JAK1/TYK2 pSTAT5 (Tyr694/699) in THP-1 cell line.
≤ 500 nM
